System: Haemophilus influenzae
TEST_NAME: In vitro antimicrobial activity against Haemophilus influenzae.
Assay type: functional
Provide the recorded MIC for the entries that follow.
Give bare numbers, in µg/mL.

| INPUT_SMILES | UNIT_ABBREVIATION | MIC |
| --- | --- | --- |
| CC[C@H]1OC(=O)C[C@@H](O)[C@H](C)[C@@H](O[C@@H]2O[C@H](C)[C@@H](O)[C@H](N(C)C)[C@H]2O)[C@@H](CCOc2cc(Cl)cc(Cl)c2)C[C@@H](C)C(=O)/C=C/C(C)=C/[C@@H]1CO[C@@H]1O[C@H](C)[C@@H](O)[C@@H](OC)[C@H]1OC | µg/mL | 32 |

Shifting focus to the compound that follows.
### Prompt Please look at this compound and report its MIC: CC[C@H]1OC(=O)C[C@@H](O)[C@H](C)[C@@H](O[C@@H]2O[C@H](C)[C@@H](O[C@H]3C[C@@](C)(O)[C@@H](O)[C@H](C)O3)[C@H](N(C)C)[C@H]2O)[C@@H](CCNCCc2ccccc2)C[C@@H](C)C(=O)/C=C/C(C)=C/[C@@H]1CO
### Response 64

====

System: Haemophilus influenzae
TEST_NAME: In vitro antimicrobial activity against Haemophilus influenzae.
Assay type: functional
QUANTITY: MIC (µg/mL)
Answers are plain numbers, in µg/mL.

| INPUT_SMILES | UNIT_ABBREVIATION | MIC |
| --- | --- | --- |
| CC[C@H]1C[C@@H](C)C(=O)/C=C/C(C)=C/[C@H](C)[C@@H](CC)OC(=O)C[C@@H](O)[C@H](C)[C@H]1O[C@@H]1O[C@H](C)[C@@H](O)[C@H](N(C)C)[C@H]1O | µg/mL | 64 |
| CC[C@H]1OC(=O)C[C@@H](O)[C@H](C)[C@@H](O[C@@H]2O[C@H](C)[C@@H](O)[C@H](N(C)C)[C@H]2O)[C@@H](CCNCCc2ccccc2)C[C@@H](C)C(=O)/C=C/C(C)=C/[C@@H]1CO[C@@H]1O[C@H](C)[C@@H](O)[C@@H](OC)[C@H]1OC | µg/mL | 8 |
| CC[C@H]1OC(=O)C[C@@H](O)[C@H](C)[C@@H](O[C@@H]2O[C@H](C)[C@@H](O[C@H]3C[C@@](C)(O)[C@@H](O)[C@H](C)O3)[C@H](N(C)C)[C@H]2O)[C@@H](CC=O)C[C@@H](C)C(=O)/C=C/C(C)=C/[C@@H]1CO[C@@H]1O[C@H](C)[C@@H](O)[C@@H](O)[C@H]1OC | µg/mL | 16 |
| CC[C@H]1OC(=O)C[C@@H](O)[C@H](C)[C@@H](O[C@@H]2O[C@H](C)[C@@H](O)[C@H](N(C)C)[C@H]2O)[C@@H](CCBr)C[C@@H](C)C(=O)/C=C/C(C)=C/[C@@H]1CO[C@@H]1O[C@H](C)[C@@H](O)[C@@H](OC)[C@H]1OC | µg/mL | 16 |
| CC[C@H]1OC(=O)C[C@@H](O)[C@H](C)[C@@H](O[C@@H]2O[C@H](C)[C@@H](O[C@H]3C[C@@](C)(O)[C@@H](O)[C@H](C)O3)[C@H](N(C)C)[C@H]2O)[C@@H](CCNCCc2ccccc2)C[C@@H](C)C(=O)/C=C/C(C)=C/[C@@H]1C | µg/mL | 64 |

### Prompt State the measured MIC (Haemophilus influenzae) of CC[C@H]1OC(=O)C[C@@H](O)[C@H](C)[C@@H](O[C@@H]2O[C@H](C)[C@@H](O)[C@H](N(C)C)[C@H]2O)[C@@H](CCOC(C)=O)C[C@@H](C)C(=O)/C=C/C(C)=C/[C@@H]1CO[C@@H]1O[C@H](C)[C@@H](O)[C@@H](OC)[C@H]1OC
### Response 16
